Hey, just so you know, these numbers are from ChEMBL document CHEMBL2021777.

- System Under Test: Neuronal acetylcholine receptor; alpha2/beta4 (Rattus norvegicus, UniProt P12389+P12392)
- Sequence (P12389 whole entry): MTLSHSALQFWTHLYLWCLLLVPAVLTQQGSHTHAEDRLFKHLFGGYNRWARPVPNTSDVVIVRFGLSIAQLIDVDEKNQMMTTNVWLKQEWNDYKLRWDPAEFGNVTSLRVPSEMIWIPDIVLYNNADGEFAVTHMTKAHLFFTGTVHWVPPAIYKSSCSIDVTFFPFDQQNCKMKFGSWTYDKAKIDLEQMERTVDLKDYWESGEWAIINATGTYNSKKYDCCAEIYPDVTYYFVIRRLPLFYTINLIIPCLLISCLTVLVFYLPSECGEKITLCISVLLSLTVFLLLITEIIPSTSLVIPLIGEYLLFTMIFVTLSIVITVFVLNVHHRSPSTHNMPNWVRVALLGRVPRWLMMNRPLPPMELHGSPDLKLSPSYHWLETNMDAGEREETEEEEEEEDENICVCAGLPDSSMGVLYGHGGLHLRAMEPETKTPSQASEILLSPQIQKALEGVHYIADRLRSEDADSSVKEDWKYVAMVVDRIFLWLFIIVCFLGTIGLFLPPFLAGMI
- Sequence (P12392 whole entry): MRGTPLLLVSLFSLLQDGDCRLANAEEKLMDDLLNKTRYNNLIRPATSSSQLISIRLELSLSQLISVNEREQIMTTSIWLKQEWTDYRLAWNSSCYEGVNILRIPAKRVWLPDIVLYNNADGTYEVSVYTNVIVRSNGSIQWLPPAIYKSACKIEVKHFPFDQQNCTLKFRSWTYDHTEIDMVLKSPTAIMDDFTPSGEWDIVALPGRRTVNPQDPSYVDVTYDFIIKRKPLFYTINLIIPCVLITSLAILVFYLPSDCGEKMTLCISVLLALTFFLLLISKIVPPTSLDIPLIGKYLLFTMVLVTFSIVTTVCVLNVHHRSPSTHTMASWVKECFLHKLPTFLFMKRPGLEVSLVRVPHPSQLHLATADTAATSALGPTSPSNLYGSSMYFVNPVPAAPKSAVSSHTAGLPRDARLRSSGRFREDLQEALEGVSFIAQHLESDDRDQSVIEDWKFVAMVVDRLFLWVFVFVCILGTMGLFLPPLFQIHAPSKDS
- Experimental Details: Displacement of [3H] epibatidine from rat alpha2beta4 nAChR by beta scintillation counting
Recorded Metric: pKi
Remember the convention: pKi equals -log10 of concentration in molar.

Enquiry: Can you look up pKi on Neuronal acetylcholine receptor; alpha2/beta4 (Rattus norvegicus, UniProt P12389+P12392) for O=C(Nc1ccccc1)OCC[C@H]1C[C@@H]1c1cncc(OC[C@@H]2CCN2)c1 ?
Return: 6.62

Enquiry: Same question for OCC[C@H]1C[C@@H]1c1cncc(OC[C@@H]2CCN2)c1 please.
Return: 6.60

Enquiry: Same question for COCC[C@@H]1C[C@H]1c1cncc(OC[C@@H]2CCN2)c1 please.
Return: 6.39

Enquiry: Same question for COCC[C@H]1C[C@@H]1c1cncc(OC[C@@H]2CCN2)c1 please.
Return: 6.63

Enquiry: Same question for CN(C)C(=O)OCC[C@H]1C[C@@H]1c1cncc(OC[C@@H]2CCN2)c1 please.
Return: 6.58

Enquiry: Same question for OCC[C@@H]1C[C@H]1c1cncc(OC[C@@H]2CCN2)c1 please.
Return: 7.19

Enquiry: Same question for O=C(NC1CC1)OCC[C@H]1C[C@@H]1c1cncc(OC[C@@H]2CCN2)c1 please.
Return: 6.14

Enquiry: Same question for O=C(OCC[C@H]1C[C@@H]1c1cncc(OC[C@@H]2CCN2)c1)N1CCCC1 please.
Return: 5.63

Enquiry: Same question for CNC(=O)OCC[C@H]1C[C@@H]1c1cncc(OC[C@@H]2CCN2)c1 please.
Return: 5.72

====

- System Under Test: hERG (KCNH2) (Homo sapiens, UniProt Q12809)
- Sequence (Q12809 whole entry): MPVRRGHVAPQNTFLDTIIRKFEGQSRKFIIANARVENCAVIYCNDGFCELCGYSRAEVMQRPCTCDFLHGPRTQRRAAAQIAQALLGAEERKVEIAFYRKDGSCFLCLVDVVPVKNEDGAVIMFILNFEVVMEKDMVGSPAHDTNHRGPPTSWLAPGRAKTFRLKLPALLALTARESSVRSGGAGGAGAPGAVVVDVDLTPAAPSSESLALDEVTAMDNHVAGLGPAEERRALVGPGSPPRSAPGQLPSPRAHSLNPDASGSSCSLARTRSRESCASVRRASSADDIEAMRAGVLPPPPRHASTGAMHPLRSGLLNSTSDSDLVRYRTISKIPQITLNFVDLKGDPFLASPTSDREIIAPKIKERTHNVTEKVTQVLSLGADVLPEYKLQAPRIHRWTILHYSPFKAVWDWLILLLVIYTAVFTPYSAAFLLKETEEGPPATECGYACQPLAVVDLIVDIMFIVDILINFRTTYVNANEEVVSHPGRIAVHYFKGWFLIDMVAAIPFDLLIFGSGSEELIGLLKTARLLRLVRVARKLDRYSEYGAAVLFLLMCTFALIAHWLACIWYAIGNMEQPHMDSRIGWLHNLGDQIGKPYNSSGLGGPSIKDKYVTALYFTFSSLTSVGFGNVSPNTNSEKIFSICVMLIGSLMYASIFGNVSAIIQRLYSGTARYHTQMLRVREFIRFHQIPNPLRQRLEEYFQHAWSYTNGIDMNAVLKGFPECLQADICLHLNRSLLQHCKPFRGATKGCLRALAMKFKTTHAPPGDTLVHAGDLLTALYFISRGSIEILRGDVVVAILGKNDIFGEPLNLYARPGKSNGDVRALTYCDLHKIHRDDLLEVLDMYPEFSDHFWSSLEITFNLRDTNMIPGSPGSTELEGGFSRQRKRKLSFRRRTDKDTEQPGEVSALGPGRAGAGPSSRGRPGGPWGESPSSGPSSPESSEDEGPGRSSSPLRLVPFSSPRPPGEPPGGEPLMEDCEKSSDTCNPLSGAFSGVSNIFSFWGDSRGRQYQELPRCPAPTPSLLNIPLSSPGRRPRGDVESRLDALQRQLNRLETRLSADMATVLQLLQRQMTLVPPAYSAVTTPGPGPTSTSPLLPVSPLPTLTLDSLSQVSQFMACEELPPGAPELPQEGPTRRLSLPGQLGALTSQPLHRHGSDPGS
- Experimental Details: Inhibition of human ERG expressed in CHO cells at 10 uM by patch clamp electrophysiology assay
- Format: cell-based
- Experimental Setup: CHO cells expressing human ERG
Recorded Metric: inhibition at 10 µM (%)
Unit % implied. Number only.

Enquiry: What value of measured inhibition at 10 µM is listed for CNC(=O)OCC[C@H]1C[C@@H]1c1cncc(OC[C@@H]2CCN2)c1 ?
Return: 16.6

Enquiry: Same question for OCC[C@H]1C[C@@H]1c1cncc(OC[C@@H]2CCN2)c1 please.
Return: 19.1

Enquiry: Same question for COCC[C@H]1C[C@@H]1c1cncc(OC[C@@H]2CCN2)c1 please.
Return: 13.7

====

- System Under Test: Neuronal acetylcholine receptor; alpha4/beta2 (Rattus norvegicus, UniProt P09483+P12390)
- Sequence (P09483 whole entry): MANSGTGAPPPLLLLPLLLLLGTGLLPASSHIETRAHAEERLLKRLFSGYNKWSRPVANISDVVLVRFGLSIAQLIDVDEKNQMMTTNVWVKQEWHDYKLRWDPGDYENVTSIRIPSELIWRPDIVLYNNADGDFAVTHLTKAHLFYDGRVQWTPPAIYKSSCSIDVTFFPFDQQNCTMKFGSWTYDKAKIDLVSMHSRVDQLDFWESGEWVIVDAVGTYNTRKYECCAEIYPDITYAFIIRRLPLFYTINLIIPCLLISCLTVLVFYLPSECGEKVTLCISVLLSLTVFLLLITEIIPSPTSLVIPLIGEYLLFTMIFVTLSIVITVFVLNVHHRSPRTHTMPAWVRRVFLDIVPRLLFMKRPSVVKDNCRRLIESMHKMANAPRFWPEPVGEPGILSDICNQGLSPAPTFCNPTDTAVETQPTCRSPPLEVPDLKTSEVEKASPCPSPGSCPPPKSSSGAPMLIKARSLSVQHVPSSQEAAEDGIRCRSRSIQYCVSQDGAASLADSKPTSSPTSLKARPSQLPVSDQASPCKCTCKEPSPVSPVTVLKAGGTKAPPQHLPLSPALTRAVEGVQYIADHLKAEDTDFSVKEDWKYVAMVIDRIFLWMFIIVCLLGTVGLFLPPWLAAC
- Sequence (P12390 whole entry): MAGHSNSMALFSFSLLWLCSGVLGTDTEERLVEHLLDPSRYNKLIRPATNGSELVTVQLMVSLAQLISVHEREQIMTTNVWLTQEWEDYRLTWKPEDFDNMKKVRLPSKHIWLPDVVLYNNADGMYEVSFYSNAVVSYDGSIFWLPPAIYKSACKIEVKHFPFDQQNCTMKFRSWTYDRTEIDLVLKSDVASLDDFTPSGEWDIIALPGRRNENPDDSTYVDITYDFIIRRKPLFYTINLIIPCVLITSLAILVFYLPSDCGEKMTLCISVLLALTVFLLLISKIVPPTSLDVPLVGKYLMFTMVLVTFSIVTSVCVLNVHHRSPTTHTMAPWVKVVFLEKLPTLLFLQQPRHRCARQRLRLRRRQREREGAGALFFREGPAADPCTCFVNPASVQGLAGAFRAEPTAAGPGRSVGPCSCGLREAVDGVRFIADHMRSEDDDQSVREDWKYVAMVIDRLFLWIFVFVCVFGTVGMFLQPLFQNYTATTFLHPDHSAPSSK
- Experimental Details: Displacement of [3H] epibatidine from rat alpha4beta2 nAChR expressed in HEK293 cells by liquid scintillation counting
- Format: cell-based
Recorded Metric: Ki (nM)
Unit nM implied. Number only.

Enquiry: What value of measured Ki is listed for OCCCCC#Cc1cncc(OC[C@@H]2CCN2)c1 ?
Return: 0.4

====

Can you tell me pKi for the items I'm about to list?
- System Under Test: Neuronal acetylcholine receptor; alpha3/beta4 (Rattus norvegicus, UniProt P04757+P12392)
- Sequence (P04757 whole entry): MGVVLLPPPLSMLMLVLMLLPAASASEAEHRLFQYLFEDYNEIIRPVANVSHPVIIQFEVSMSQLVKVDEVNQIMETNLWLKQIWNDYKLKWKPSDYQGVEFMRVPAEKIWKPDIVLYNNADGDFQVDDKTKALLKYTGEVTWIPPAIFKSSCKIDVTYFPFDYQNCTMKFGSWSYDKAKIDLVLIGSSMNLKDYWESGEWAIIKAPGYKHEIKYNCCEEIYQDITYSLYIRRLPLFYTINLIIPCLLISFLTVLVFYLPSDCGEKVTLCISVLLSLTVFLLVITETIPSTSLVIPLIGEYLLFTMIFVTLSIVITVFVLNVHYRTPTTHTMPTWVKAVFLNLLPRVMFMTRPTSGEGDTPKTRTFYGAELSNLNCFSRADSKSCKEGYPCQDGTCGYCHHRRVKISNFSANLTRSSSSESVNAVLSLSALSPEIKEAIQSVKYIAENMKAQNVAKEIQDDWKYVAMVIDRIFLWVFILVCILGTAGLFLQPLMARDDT
- Sequence (P12392 whole entry): as the sequence (P12392 whole entry) above
- Experimental Details: Displacement of [3H] epibatidine from rat alpha3beta4 nAChR by beta scintillation counting
- Format: protein-complex assay
pKi: −log10 of the molar value.

Enquiry: Can you look up pKi on Neuronal acetylcholine receptor; alpha3/beta4 (Rattus norvegicus, UniProt P04757+P12392) for COCC[C@@H]1C[C@H]1c1cncc(OC[C@@H]2CCN2)c1 ?
Return: < 5.00

Enquiry: Same question for O=C(Nc1ccccc1)OCC[C@H]1C[C@@H]1c1cncc(OC[C@@H]2CCN2)c1 please.
Return: 5.05

Enquiry: Same question for O=C(OCC[C@H]1C[C@@H]1c1cncc(OC[C@@H]2CCN2)c1)N1CCCC1 please.
Return: < 5.00

Enquiry: Same question for CN(C)C(=O)OCC[C@H]1C[C@@H]1c1cncc(OC[C@@H]2CCN2)c1 please.
Return: < 5.00

Enquiry: Same question for O=C(NC1CC1)OCC[C@H]1C[C@@H]1c1cncc(OC[C@@H]2CCN2)c1 please.
Return: < 5.00

Enquiry: Same question for OCC[C@@H]1C[C@H]1c1cncc(OC[C@@H]2CCN2)c1 please.
Return: 5.98

Enquiry: Same question for COCC[C@H]1C[C@@H]1c1cncc(OC[C@@H]2CCN2)c1 please.
Return: < 5.00

Enquiry: Same question for CNC(=O)OCC[C@H]1C[C@@H]1c1cncc(OC[C@@H]2CCN2)c1 please.
Return: < 5.00

Enquiry: Same question for OCC[C@H]1C[C@@H]1c1cncc(OC[C@@H]2CCN2)c1 please.
Return: 5.19

====

- Species: Rattus norvegicus
- Experimental Details: Selectivity ratio of Ki for rat alpha3beta4 to Ki for rat alpha4beta2
Can you tell me Ratio Ki for the items I'm about to list?

Enquiry: What value of measured Ratio Ki is listed for COCC[C@@H]1C[C@H]1c1cncc(OC[C@@H]2CCN2)c1 ?
Return: > 16700

Enquiry: Same question for CN(C)C(=O)OCC[C@H]1C[C@@H]1c1cncc(OC[C@@H]2CCN2)c1 please.
Return: > 100000

Enquiry: Same question for O=C(NC1CC1)OCC[C@H]1C[C@@H]1c1cncc(OC[C@@H]2CCN2)c1 please.
Return: > 100000

Enquiry: Same question for O=C(OCC[C@H]1C[C@@H]1c1cncc(OC[C@@H]2CCN2)c1)N1CCCC1 please.
Return: > 100000

Enquiry: Same question for COCC[C@H]1C[C@@H]1c1cncc(OC[C@@H]2CCN2)c1 please.
Return: > 100000

Enquiry: Same question for CNC(=O)OCC[C@H]1C[C@@H]1c1cncc(OC[C@@H]2CCN2)c1 please.
Return: > 100000

====

Can you tell me pKi for the items I'm about to list?
- System Under Test: Neuronal acetylcholine receptor; alpha4/beta2 (Rattus norvegicus, UniProt P09483+P12390)
- Experimental Details: Displacement of [3H] epibatidine from rat alpha4beta2 nAChR by beta scintillation counting
- Type: protein-complex assay
Remember the convention: pKi equals -log10 of concentration in molar.

Enquiry: What value of measured pKi is listed for CNC(=O)OCC[C@H]1C[C@@H]1c1cncc(OC[C@@H]2CCN2)c1 ?
Return: 9.22

Enquiry: Same question for COCC[C@@H]1C[C@H]1c1cncc(OC[C@@H]2CCN2)c1 please.
Return: 9.22

Enquiry: Same question for O=C(Nc1ccccc1)OCC[C@H]1C[C@@H]1c1cncc(OC[C@@H]2CCN2)c1 please.
Return: 9.22
